Taken from ChEMBL document CHEMBL4507327.

# Tested system: MAP kinase-activated protein kinase 5 (Homo sapiens, UniProt Q8IW41)
# Procedure summary: MAPKAPK5(MPK5LGN1) Takeda global kinase panel
Parameter: IC50

CN1C(=O)[C@@H](N2CCc3cn(CC4CCS(=O)(=O)CC4)nc3C2=O)COc2ccccc21 [TP-030n] = 1 µM

====

# Tested system: Serine/threonine-protein kinase Nek9 (Homo sapiens, UniProt Q8TD19)
# Sequence (Q8TD19 whole entry): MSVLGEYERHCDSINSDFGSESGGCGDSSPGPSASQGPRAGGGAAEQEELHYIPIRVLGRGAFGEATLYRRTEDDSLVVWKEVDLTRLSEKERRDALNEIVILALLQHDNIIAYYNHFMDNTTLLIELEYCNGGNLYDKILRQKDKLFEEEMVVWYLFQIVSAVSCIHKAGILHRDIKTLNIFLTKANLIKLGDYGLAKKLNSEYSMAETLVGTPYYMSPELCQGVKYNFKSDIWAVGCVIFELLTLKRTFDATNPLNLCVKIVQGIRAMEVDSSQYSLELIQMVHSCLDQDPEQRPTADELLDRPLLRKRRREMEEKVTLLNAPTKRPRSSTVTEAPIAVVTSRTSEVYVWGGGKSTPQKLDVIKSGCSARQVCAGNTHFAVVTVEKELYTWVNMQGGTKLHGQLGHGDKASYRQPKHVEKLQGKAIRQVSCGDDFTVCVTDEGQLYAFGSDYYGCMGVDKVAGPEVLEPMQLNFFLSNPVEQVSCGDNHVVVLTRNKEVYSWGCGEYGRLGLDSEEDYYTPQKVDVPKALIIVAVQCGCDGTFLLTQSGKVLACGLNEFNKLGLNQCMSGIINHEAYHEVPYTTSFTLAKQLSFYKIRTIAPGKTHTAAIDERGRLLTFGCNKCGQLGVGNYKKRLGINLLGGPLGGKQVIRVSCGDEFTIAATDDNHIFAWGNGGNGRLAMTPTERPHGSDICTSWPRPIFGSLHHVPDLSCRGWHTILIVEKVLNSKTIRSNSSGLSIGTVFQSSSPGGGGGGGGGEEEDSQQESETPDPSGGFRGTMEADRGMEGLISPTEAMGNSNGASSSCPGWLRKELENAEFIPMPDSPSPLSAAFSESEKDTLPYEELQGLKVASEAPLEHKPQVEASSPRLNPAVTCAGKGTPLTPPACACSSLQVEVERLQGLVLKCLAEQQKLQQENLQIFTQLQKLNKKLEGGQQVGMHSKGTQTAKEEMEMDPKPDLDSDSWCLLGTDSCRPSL
# Procedure summary: Nek9(NEK9LGF1) Takeda global kinase panel
Parameter: IC50 (µM)

CN1C(=O)[C@@H](N2CCc3cn(CC4CCS(=O)(=O)CC4)nc3C2=O)COc2ccccc21 [TP-030n] = 1
CN1C(=O)[C@@H](N2CCc3cn(Cc4ccccc4)nc3C2=O)COc2ccccc21 = 1

====

# Tested system: Tyrosine-protein kinase JAK3 (Homo sapiens, UniProt P52333)
# Sequence (P52333 whole entry): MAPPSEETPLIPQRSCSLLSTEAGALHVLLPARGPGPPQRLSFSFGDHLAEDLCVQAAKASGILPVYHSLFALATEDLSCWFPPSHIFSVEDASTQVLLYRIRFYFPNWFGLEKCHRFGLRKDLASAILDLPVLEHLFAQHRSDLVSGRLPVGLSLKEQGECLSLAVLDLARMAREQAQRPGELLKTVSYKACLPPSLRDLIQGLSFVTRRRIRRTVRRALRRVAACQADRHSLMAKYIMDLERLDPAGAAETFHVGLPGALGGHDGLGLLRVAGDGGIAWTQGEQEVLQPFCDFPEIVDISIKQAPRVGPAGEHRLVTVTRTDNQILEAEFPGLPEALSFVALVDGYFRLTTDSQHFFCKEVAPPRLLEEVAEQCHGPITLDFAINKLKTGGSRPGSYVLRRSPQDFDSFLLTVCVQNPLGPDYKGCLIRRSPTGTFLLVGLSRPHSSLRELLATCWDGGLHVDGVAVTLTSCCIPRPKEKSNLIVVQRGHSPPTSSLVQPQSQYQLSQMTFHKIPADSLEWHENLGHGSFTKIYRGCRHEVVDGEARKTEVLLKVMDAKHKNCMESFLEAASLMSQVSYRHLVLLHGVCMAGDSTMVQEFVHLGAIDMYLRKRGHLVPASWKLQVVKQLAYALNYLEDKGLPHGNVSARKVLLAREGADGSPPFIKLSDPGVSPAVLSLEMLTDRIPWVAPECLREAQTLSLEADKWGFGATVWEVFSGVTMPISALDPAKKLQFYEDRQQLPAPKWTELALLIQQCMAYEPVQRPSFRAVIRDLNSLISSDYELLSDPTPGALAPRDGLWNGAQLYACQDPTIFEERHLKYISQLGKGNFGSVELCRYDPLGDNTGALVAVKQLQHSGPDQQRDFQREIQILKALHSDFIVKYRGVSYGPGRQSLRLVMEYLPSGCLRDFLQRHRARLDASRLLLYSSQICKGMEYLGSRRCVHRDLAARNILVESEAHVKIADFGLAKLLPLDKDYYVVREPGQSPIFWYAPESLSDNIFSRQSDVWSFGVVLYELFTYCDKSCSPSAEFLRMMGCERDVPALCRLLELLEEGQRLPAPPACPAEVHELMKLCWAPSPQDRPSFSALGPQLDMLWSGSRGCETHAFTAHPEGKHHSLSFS
Parameter: IC50 (µM)

CN1C(=O)[C@@H](N2CCc3cn(Cc4ccccc4)nc3C2=O)COc2ccccc21 = 1
CN1C(=O)[C@@H](N2CCc3cn(CC4CCS(=O)(=O)CC4)nc3C2=O)COc2ccccc21 [TP-030n] = 1

====

# Procedure summary: GPCRScan assay: inhibition of GABA/PBR
# Set-up: species or system Rattus norvegicus; radioligand conc. used [nm] 0.3 – 2.0, parental cells brain tissue
Parameter: Ki (nM)

CN1C(=O)[C@@H](N2CCc3cn(Cc4ccccc4)nc3C2=O)COc2ccccc21 = 375

====

# Tested system: Serine/threonine-protein kinase VRK1 (Homo sapiens, UniProt Q99986)
# Sequence (Q99986 whole entry): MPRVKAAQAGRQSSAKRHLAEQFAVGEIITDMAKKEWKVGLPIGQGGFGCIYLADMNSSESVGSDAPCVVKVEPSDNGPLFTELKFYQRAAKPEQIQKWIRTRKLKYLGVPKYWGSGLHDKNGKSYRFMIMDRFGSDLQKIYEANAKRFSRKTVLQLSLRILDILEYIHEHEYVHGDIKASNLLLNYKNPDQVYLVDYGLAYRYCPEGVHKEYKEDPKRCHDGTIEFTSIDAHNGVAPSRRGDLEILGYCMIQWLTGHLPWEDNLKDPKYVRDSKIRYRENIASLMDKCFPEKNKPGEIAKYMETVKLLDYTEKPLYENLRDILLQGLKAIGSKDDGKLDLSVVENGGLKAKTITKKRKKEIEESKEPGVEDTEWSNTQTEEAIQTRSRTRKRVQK
Parameter: IC50 (µM)

CN1C(=O)[C@@H](N2CCc3cn(CC4CCS(=O)(=O)CC4)nc3C2=O)COc2ccccc21 [TP-030n] = 1
CN1C(=O)[C@@H](N2CCc3cn(Cc4ccccc4)nc3C2=O)COc2ccccc21 [TP-030-1] = 1

====

Recorded pIC50 values for a group of molecules are listed next.
# Tested system: Mitogen-activated protein kinase kinase kinase kinase 5 (Homo sapiens)
# Sequence (Q9Y4K4 whole entry): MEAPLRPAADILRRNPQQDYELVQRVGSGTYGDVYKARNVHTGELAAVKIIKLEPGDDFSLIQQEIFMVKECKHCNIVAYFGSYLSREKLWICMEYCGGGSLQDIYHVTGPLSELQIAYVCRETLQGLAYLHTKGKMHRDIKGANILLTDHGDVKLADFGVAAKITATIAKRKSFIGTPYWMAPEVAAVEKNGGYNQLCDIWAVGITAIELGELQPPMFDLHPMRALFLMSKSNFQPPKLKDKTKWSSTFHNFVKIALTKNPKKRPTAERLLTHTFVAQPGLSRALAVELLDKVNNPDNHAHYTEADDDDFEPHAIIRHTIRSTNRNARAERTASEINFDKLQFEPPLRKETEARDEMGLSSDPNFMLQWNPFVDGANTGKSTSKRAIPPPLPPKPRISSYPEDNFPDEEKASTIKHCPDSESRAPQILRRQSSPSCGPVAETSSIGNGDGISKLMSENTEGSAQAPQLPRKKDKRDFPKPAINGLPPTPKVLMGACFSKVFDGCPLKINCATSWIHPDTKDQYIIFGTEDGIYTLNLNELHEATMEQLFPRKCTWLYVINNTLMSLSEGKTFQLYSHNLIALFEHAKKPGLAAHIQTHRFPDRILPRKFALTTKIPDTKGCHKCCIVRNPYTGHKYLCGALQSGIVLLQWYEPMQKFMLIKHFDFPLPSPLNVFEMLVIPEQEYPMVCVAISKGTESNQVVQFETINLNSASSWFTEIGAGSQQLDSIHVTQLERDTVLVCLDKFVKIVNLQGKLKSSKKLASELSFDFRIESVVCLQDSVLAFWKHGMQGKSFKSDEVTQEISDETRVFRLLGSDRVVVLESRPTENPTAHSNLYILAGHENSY
# Procedure summary: KHS1(M4K5LGY1) Takeda global kinase panel
pIC50: −log10 of the molar value.
Parameter: pIC50

CN1C(=O)[C@@H](N2CCc3cn(Cc4ccccc4)nc3C2=O)COc2ccccc21 = 6.00
CN1C(=O)[C@@H](N2CCc3cn(CC4CCS(=O)(=O)CC4)nc3C2=O)COc2ccccc21 [TP-030n] = 6.00

====

Recorded below: IC50, system High affinity nerve growth factor receptor (Homo sapiens).
Parameter: IC50

CN1C(=O)[C@@H](N2CCc3cn(CC4CCS(=O)(=O)CC4)nc3C2=O)COc2ccccc21 [TP-030n] = 1 µM
CN1C(=O)[C@@H](N2CCc3cn(Cc4ccccc4)nc3C2=O)COc2ccccc21 [TP-030-1] = 1 µM

====

# Tested system: Ribosomal protein S6 kinase alpha-3 (Homo sapiens, UniProt P51812)
# Sequence (P51812 whole entry): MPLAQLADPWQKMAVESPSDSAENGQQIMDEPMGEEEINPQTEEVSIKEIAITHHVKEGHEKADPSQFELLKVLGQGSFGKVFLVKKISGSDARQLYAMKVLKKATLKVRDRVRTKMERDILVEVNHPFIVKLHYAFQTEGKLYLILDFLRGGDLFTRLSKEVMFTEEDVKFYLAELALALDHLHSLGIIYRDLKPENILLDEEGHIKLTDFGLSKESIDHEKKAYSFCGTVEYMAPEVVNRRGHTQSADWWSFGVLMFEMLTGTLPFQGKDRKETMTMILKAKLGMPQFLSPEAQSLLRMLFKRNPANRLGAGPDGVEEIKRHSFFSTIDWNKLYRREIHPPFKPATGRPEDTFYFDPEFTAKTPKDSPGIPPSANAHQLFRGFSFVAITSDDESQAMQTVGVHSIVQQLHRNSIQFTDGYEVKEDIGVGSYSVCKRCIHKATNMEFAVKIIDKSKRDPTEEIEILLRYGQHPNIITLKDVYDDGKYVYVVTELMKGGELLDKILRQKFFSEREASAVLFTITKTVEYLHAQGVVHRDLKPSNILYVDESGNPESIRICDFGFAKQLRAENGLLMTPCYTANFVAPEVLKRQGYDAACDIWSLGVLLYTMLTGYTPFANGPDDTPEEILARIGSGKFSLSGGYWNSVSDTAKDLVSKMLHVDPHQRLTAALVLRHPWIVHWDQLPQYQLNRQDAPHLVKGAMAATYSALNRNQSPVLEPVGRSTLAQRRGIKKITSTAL
Parameter: IC50 (µM)

CN1C(=O)[C@@H](N2CCc3cn(CC4CCS(=O)(=O)CC4)nc3C2=O)COc2ccccc21 [TP-030n] = 1

====

Recorded IC50 values for a group of molecules are listed next.
# Tested system: Serine/threonine-protein kinase PINK1, mitochondrial (Homo sapiens, UniProt Q9BXM7)
Parameter: IC50 (nM)

CN1C(=O)[C@@H](N2CCc3cn(CC4CCS(=O)(=O)CC4)nc3C2=O)COc2ccccc21 [TP-030n] = 1000
CN1C(=O)[C@@H](N2CCc3cn(Cc4ccccc4)nc3C2=O)COc2ccccc21 [TP-030-1] = 1000

====

# Tested system: Mitotic checkpoint serine/threonine-protein kinase BUB1 (Homo sapiens)
# Sequence (O43683 whole entry): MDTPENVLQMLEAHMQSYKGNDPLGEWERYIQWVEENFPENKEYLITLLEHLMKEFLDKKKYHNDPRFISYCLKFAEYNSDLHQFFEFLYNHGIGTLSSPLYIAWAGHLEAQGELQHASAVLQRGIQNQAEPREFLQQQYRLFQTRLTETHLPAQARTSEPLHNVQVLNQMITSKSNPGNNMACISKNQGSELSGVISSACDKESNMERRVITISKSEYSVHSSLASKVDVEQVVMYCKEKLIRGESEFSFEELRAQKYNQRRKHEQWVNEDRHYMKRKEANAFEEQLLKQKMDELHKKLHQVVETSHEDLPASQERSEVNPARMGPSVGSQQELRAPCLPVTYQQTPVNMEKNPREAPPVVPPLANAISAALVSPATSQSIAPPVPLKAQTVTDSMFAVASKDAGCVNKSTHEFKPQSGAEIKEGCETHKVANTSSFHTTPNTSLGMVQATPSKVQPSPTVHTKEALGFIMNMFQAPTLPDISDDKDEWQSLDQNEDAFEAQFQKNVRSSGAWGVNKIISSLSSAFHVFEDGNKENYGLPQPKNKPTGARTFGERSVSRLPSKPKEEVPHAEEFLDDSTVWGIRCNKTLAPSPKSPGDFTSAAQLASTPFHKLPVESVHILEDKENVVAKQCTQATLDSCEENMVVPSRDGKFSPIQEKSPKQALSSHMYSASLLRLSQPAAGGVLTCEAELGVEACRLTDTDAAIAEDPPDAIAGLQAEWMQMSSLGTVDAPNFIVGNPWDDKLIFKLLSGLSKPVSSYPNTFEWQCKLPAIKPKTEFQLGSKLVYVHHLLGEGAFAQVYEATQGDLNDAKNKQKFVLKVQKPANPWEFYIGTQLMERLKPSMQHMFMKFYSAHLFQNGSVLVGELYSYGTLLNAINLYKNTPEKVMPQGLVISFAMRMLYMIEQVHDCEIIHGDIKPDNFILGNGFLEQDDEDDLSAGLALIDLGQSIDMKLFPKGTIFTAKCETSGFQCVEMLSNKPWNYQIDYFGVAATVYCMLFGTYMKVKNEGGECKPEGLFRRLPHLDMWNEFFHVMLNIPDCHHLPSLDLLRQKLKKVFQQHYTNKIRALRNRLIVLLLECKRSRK
pIC50: −log10 of the molar value.
Parameter: pIC50

CN1C(=O)[C@@H](N2CCc3cn(Cc4ccccc4)nc3C2=O)COc2ccccc21 [TP-030-1] = 6.00
CN1C(=O)[C@@H](N2CCc3cn(CC4CCS(=O)(=O)CC4)nc3C2=O)COc2ccccc21 [TP-030n] = 6.00

====

# Tested system: STE20/SPS1-related proline-alanine-rich protein kinase (Homo sapiens)
pIC50: −log10 of the molar value.
Parameter: pIC50

CN1C(=O)[C@@H](N2CCc3cn(Cc4ccccc4)nc3C2=O)COc2ccccc21 [TP-030-1] = 6.00

====

# Tested system: LIM domain kinase 1 (Homo sapiens, UniProt P53667)
# Sequence (P53667 whole entry, the tested form may be a part): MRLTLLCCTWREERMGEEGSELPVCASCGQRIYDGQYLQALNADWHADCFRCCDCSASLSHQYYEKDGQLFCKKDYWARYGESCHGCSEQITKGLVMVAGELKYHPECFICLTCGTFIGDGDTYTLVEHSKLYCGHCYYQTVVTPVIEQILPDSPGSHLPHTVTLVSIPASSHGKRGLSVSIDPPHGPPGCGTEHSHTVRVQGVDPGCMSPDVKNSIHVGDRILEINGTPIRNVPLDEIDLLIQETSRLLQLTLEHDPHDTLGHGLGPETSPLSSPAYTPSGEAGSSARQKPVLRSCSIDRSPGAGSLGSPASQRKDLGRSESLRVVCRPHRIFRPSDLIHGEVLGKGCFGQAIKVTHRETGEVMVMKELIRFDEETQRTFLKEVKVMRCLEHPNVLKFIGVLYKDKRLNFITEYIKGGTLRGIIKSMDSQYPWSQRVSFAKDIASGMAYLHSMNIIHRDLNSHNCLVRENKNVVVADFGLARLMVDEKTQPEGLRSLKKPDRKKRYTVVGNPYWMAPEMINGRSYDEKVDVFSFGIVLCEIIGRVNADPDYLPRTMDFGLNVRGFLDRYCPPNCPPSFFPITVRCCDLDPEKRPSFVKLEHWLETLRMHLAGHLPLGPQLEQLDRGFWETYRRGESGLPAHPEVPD
Parameter: IC50 (nM)

CN1C(=O)[C@@H](N2CCc3cn(CC4CCS(=O)(=O)CC4)nc3C2=O)COc2ccccc21 [TP-030n] = 1000
CN1C(=O)[C@@H](N2CCc3cn(Cc4ccccc4)nc3C2=O)COc2ccccc21 [TP-030-1] = 1000

====

Recorded below: IC50, system Protein kinase C eta type (Homo sapiens, UniProt P24723).
Parameter: IC50 (µM)

CN1C(=O)[C@@H](N2CCc3cn(Cc4ccccc4)nc3C2=O)COc2ccccc21 = 1
CN1C(=O)[C@@H](N2CCc3cn(CC4CCS(=O)(=O)CC4)nc3C2=O)COc2ccccc21 [TP-030n] = 1

====

pIC50: −log10 of the molar value.
Recorded below: pIC50, system Serine/threonine-protein kinase 24 (Homo sapiens).
Parameter: pIC50

CN1C(=O)[C@@H](N2CCc3cn(CC4CCS(=O)(=O)CC4)nc3C2=O)COc2ccccc21 [TP-030n] = 6.00
CN1C(=O)[C@@H](N2CCc3cn(Cc4ccccc4)nc3C2=O)COc2ccccc21 = 6.00

====

# Tested system: Maternal embryonic leucine zipper kinase (Homo sapiens, UniProt Q14680)
# Sequence (Q14680 whole entry): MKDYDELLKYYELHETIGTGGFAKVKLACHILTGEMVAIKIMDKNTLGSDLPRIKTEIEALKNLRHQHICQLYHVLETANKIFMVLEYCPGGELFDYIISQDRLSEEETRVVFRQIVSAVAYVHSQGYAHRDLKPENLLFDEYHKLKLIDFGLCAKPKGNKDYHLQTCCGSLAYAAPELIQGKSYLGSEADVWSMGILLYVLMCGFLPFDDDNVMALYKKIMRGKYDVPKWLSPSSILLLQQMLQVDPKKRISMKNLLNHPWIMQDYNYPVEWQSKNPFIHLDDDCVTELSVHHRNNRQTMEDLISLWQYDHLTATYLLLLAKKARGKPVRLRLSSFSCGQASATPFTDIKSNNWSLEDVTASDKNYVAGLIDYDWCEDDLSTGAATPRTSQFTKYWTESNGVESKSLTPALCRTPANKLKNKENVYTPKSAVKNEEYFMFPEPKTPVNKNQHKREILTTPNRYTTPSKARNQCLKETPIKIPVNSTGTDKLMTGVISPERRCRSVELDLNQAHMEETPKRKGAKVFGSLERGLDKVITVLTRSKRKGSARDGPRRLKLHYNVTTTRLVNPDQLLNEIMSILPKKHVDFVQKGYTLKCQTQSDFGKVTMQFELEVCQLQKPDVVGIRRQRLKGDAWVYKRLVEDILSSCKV
pIC50: −log10 of the molar value.
Recorded pIC50 values for a group of molecules are listed next.
Parameter: pIC50

CN1C(=O)[C@@H](N2CCc3cn(Cc4ccccc4)nc3C2=O)COc2ccccc21 = 6.00
CN1C(=O)[C@@H](N2CCc3cn(CC4CCS(=O)(=O)CC4)nc3C2=O)COc2ccccc21 [TP-030n] = 6.00
